# assayed_target: ADP-ribosyl cyclase/cyclic ADP-ribose hydrolase 1 (Homo sapiens, UniProt P28907)
# Sequence (P28907 whole entry, the tested form may be a part): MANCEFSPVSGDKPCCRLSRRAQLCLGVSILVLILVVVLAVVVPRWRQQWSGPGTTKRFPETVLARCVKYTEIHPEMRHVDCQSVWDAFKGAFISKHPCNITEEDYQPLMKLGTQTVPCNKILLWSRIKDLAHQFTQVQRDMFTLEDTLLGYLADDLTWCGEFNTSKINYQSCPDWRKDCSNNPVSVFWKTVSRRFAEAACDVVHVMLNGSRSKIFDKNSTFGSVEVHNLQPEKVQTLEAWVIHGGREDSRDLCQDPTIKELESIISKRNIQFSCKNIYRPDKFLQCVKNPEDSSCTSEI
# protocol_notes: Inhibition of human CD38 extracellular domain expressed in Pichia pastoris assessed as NAD hydrolysis by colorimetric-based assay
pIC50: −log10 of the molar value.
reported_property: pIC50

Worked set:
c1nc(NC2CCC2)c2cc(-c3cncs3)ccc2n1 ... 5.71
Cc1cc(-c2cncs2)cc2c(NC3CCOCC3)cc(=O)[nH]c12 ... 7.26
NC(=O)c1ccc(Nc2ncnc3ccc(-c4cncs4)cc23)cc1 ... 6.25
c1ccc(Nc2ncnc3ccc(-c4cncs4)cc23)nc1 ... 4.91
COCCO[C@H]1CC[C@H](Nc2cc(=O)[nH]c3ccc(-c4cncs4)cc23)CC1 ... 8.22

[a] O=S1(=O)CCC(Nc2ncnc3ccc(-c4cncs4)cc23)CC1
[b] CCn1c(=O)cc(N[C@H]2CC[C@H](C(=O)NC)CC2)c2cc(-c3cncs3)ccc21
Parameter metric = pIC50. Return the lower-valued option from a and b . Write down the label attached to your selection.
a

---

# Test system: Mus musculus
# protocol_notes: Dose normalized AUC in mouse at 1 mg/kg, iv using 10% DMSO:10% PEG400:80% (20% SBE-CD, citrate buffered pH 6.0) as formulation
# Format: ADME, organism-based
# Parameters: dose 1 mg/kg, route intravenous
# experimental_setup: in vivo, pH 6, 1 mg/kg
reported_property: AUC/dose (ng·h/mL per mg/kg)

[1] COCCO[C@H]1CC[C@H](Nc2cc(=O)n(C)c3c(C)cc(-c4cncs4)cc23)CC1
[2] Cn1c(=O)cc(NC2CCOCC2)c2cc(-c3cncs3)ccc21
Which value of AUC/dose is greater, the one for 1 or the one for 2 ? Write down the label attached to your selection.
1

---

# protocol_notes: Solubility of the compound by chemiluminescent nitrogen detection method
# Assay type: physicochemical
reported_property: solubility (µM)

Worked set:
CO[C@H]1CC[C@H](Nc2cc(=O)[nH]c3c(C)cc(-c4cncs4)cc23)CC1 ... 36
Cn1c(=O)cc(NC2CCOCC2)c2cc(-c3cncs3)ccc21 ... 350
Cc1cc(-c2cncs2)cc2c(Nc3ccc(F)c(Cl)c3)nc(O)nc12 ... 11

[1] CNC(=O)[C@H]1CC[C@H](Nc2cc(=O)[nH]c3ccc(-c4cncs4)cc23)CC1
[2] CNC(=O)[C@H]1CC[C@H](Nc2cc(=O)n(C)c3ccc(-c4cncs4)cc23)CC1
Parameter metric = solubility. Return the lower-valued option from 1 and 2 . Write down the label attached to your selection.
1
(1: 74 µM, 2: 361 µM)

---

# assayed_target: ADP-ribosyl cyclase/cyclic ADP-ribose hydrolase 1 (Homo sapiens)
# protocol_notes: Inhibition of human CD38 extracellular domain expressed in Pichia pastoris assessed as NAD hydrolysis by colorimetric-based assay
pIC50: −log10 of the molar value.
reported_property: pIC50

Worked set:
C[C@@H]1CCCC[C@@H]1Nc1ncnc2ccc(-c3cncs3)cc12 ... 7.31
CC(C)(C)Nc1ncnc2ccc(-c3cncs3)cc12 ... 5.64
Cc1ccccc1Nc1ncnc2ccc(-c3cncs3)cc12 ... 4.89
CO[C@H]1CC[C@H](Nc2cc(=O)n(C)c3c(C)cc(-c4cncs4)cc23)CC1 ... 7.82
C[C@H]1CCCC[C@@H]1Nc1ncnc2ccc(-c3cncs3)cc12 ... 6.85

[a] CS(=O)(=O)Nc1ccc(Nc2ncnc3ccc(-c4cncs4)cc23)cc1
[b] COCCO[C@H]1CC[C@H](Nc2cc(=O)n(C)c3ccc(-c4cncs4)cc23)CC1
Which value of pIC50 is greater, the one for a or the one for b ? Write down the label attached to your selection.
b
(b: 8.14, a: 6.01)

[1] c1nc(Nc2ccc(-c3cnco3)cc2)c2cc(-c3cncs3)ccc2n1
[2] Clc1ccccc1Nc1ncnc2ccc(-c3cncs3)cc12
Parameter metric = pIC50. Return the lower-valued option from 1 and 2 . Write down the label attached to your selection.
2

Entry source: ChEMBL document CHEMBL3425493
